Entry source: ChEMBL document CHEMBL1148618

Target: Cholecystokinin receptor type A (Rattus norvegicus, UniProt P30551)
Sequence (P30551 whole entry): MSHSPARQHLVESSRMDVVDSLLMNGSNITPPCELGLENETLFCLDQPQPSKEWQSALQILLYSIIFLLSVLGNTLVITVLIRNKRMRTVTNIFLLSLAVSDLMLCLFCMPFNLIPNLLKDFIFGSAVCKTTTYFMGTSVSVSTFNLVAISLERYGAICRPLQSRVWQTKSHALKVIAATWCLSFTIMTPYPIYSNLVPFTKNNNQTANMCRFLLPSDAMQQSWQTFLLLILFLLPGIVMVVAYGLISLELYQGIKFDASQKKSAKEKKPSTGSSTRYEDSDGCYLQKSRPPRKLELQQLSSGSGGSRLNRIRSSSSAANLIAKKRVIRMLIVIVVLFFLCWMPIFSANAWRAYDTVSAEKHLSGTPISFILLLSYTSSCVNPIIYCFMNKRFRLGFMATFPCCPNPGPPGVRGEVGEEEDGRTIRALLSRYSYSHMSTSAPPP
Test: Displacement of [125I]D-Tyr-Gly-[(Nle28,31)CCK-26-33] from rat CCK receptor expressed in CHO cells
endpoint: pIC50
The quantity pIC50 is defined as the negative base-10 logarithm of the molar concentration.

Query block: Record request: pIC50 value, item COc1ccc(N(C)C(=O)CN2C(=O)[C@H](NC(=O)Nc3cccc(C(=O)c4ccccc4)c3)C(=O)N(c3ccccc3)c3ccccc32)cc1
Result block: 6.31

Query block: Record request: pIC50 value, item COc1ccc(N(C(=O)CN2C(=O)[C@H](NC(=O)Nc3cccc(C(=O)c4ccccc4)c3)C(=O)N(c3ccccc3)c3ccccc32)C(C)C)cc1
Result block: 7.21

Query block: Record request: pIC50 value, item COc1ccc(N(C)C(=O)CN2C(=O)[C@@H](NC(=O)Nc3cccc(C(=O)c4ccccc4)c3)C(=O)N(c3ccccc3)c3ccccc32)cc1
Result block: 6.33

Query block: Record request: pIC50 value, item COc1ccc(N(C(=O)CN2C(=O)[C@@H](NC(=O)Nc3cccc(C(=O)c4ccccc4)c3)C(=O)N(c3ccccc3)c3ccccc32)C(C)C)cc1
Result block: 6.15
